# Tested on: T47D cells
# test.name: Real-time monitoring of 2D cell growth (IncuCyte)
# Format: cell-based
# details: Homo sapiens, 120 h, complete estrogenic media (10%FBS), 5 days, AUC
# key: entry, value: pIC50
Reminder that pIC50 means the negative base-10 logarithm of the concentration expressed in mol/L.

molecule	study.system	endpoint.result
O=C1C(c2ccc([N+](=O)[O-])cc2)=CC(O)(c2ccccc2)N1Cc1ccccc1 (centres unmarked)	T47D cells	5.16

[ask] Given the molecule Cc1ccc(C2=CC(O)(c3ccccc3)N(Cc3ccccc3)C2=O)cc1C (centres unmarked) , what is its reported pIC50?
[reply] 5.27
